For each of the binders below, state its pERK EC50 (nM).
- target or test system: T1, human MIC-1 receptor (hGFRAL, GDNF family receptor alpha like), full length (human, UniProt Q6UXV0 19-394)
- T1 sequence (looked up): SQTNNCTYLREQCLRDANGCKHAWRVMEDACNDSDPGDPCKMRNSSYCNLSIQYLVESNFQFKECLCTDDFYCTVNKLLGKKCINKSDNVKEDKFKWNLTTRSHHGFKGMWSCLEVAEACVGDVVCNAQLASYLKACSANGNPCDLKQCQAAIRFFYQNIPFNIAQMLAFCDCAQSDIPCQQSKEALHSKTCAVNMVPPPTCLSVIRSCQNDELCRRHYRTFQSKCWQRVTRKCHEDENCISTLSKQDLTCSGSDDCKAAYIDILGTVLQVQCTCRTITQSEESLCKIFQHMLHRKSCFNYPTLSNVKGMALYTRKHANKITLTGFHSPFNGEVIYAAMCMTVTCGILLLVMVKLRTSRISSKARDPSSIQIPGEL
- assay: cell-based or functional assay
One number for each entry, in nM.

Look over these answered cases.
[
  {
    "binder": "MIC-1(R2A,N3E,L105E) (ligand) AAEGDHCPLGPGRCCRLHTVRASLEDLGWADWVLSPREVQVTMCIGACPSQFRAANMHAQIKTSLHRLKPDTVPAPCCVPASYNPMVLIQKTDTGVSLQTYDDLEAKDCHCI",
    "numeric value": 0.7
  },
  {
    "binder": "MIC-1(R2A,N3E,A47E) (ligand) AAEGDHCPLGPGRCCRLHTVRASLEDLGWADWVLSPREVQVTMCIGECPSQFRAANMHAQIKTSLHRLKPDTVPAPCCVPASYNPMVLIQKTDTGVSLQTYDDLLAKDCHCI",
    "numeric value": 0.4
  }
]

Give one value of pERK EC50 (nM) per listed binder.
1. (AEE)2AES-MIC-1-Δ1-3 (ligand) AEEAEEAESGDHCPLGPGRCCRLHTVRASLEDLGWADWVLSPREVQVTMCIGACPSQFRAANMHAQIKTSLHRLKPDTVPAPCCVPASYNPMVLIQKTDTGVSLQTYDDLLAKDCHCI
2. Macrophage Inhibitory Cytokine-1 (MIC-1), human wild type, monomer sequence SEQ ID NO:1 (ligand, covalently linked homodimer; 112 amino acid monomer = residues 197-308 of the precursor; also called wtMIC-1) ARNGDHCPLGPGRCCRLHTVRASLEDLGWADWVLSPREVQVTMCIGACPSQFRAANMHAQIKTSLHRLKPDTVPAPCCVPASYNPMVLIQKTDTGVSLQTYDDLLAKDCHCI

Output:
[0.4, 0.3]
